test system: Escherichia coli TOP10; assay: shrunken log2 fold change of peptide-encoding DNA abundance (4.5 h post-induction vs induction); higher = less antimicrobial activity (less host growth inhibition); settings: time post-induction: 4.5 h; library: site-saturation at positions 5, 18, 19, 20
Reported Property: shrunken log2 fold change
Please give the numeric answer without any surrounding text.

Sample answers from the record:
RRIRLRPPRLPRPRPRPDHHPRP : -0.769
RRIRCRPPRLPRPRPRPINLPRP : -0.355
RRIRNRPPRLPRPRPRPCQNPRP : -0.835
RRIRMRPPRLPRPRPRPSMWPRP : 0.09
RRIRVRPPRLPRPRPRPLIMPRP : -0.502

Record request: shrunken log2 fold change value, item RRIRIRPPRLPRPRPRPYGKPRP -0.108

And the next one, RRIRERPPRLPRPRPRPWEEPRP ? -0.0572

And the next one, RRIRARPPRLPRPRPRPQVKPRP ? 0.136

----------
Each record here notes measured shrunken log2 fold change.
test system: Escherichia coli TOP10; assay: shrunken log2 fold change of peptide-encoding DNA abundance (4.5 h post-induction vs induction); higher = less antimicrobial activity (less host growth inhibition); settings: time post-induction: 4.5 h; library: site-saturation at positions 5, 18, 19, 20
Please give the numeric answer without any surrounding text.

Record request: shrunken log2 fold change value, item RRIRTRPPRLPRPRPRPYPRPRP -0.0911

----------
test system: Escherichia coli TOP10; assay: shrunken log2 fold change of peptide-encoding DNA abundance (4.5 h post-induction vs induction); higher = less antimicrobial activity (less host growth inhibition); conditions: time post-induction: 4.5 h; library: site-saturation at positions 5, 18, 19, 20
Reported Property: shrunken log2 fold change
Please give the numeric answer without any surrounding text.

RRIRPRPPRLPRPRPRPAQIPRP : 0.175
RRIRGRPPRLPRPRPRPMDRPRP : 0.156

Record request: shrunken log2 fold change value, item RRIRTRPPRLPRPRPRPQMLPRP -0.0274

And the next one, RRIRGRPPRLPRPRPRPWLDPRP ? 0.0661

----------
test system: Escherichia coli TOP10; experiment: shrunken log2 fold change of peptide-encoding DNA abundance (4.5 h post-induction vs induction); higher = less antimicrobial activity (less host growth inhibition); settings: time post-induction: 4.5 h; library: site-saturation at positions 5, 18, 19, 20
Each record here notes measured shrunken log2 fold change.

RRIRDRPPRLPRPRPRPKITPRP : -0.375
RRIRNRPPRLPRPRPRPTRIPRP : -0.183
RRIRARPPRLPRPRPRPMCSPRP : 0.334
RRIRCRPPRLPRPRPRPDWGPRP : -0.134
RRIRHRPPRLPRPRPRPCSMPRP : -0.0569
RRIRDRPPRLPRPRPRPAYDPRP : 0.0094
RRIRERPPRLPRPRPRPLLYPRP : -0.309
RRIRIRPPRLPRPRPRPEIMPRP : -0.183

Record request: shrunken log2 fold change value, item RRIRPRPPRLPRPRPRPYSWPRP -0.046

And the next one, RRIRMRPPRLPRPRPRPVQMPRP ? 0.247

And the next one, RRIRRRPPRLPRPRPRPKEQPRP ? 0.118

And the next one, RRIRIRPPRLPRPRPRPFKMPRP ? -0.568

And the next one, RRIRWRPPRLPRPRPRPSAIPRP ? -0.201

And the next one, RRIRERPPRLPRPRPRPVCQPRP ? 0.121

----------
test system: Escherichia coli TOP10; experiment: shrunken log2 fold change of peptide-encoding DNA abundance (4.5 h post-induction vs induction); higher = less antimicrobial activity (less host growth inhibition); details: time post-induction: 4.5 h; library: site-saturation at positions 5, 18, 19, 20
Reported Property: shrunken log2 fold change
Please give the numeric answer without any surrounding text.

Sample answers from the record:
RRIRFRPPRLPRPRPRPVEDPRP : -0.264
RRIRARPPRLPRPRPRPPPYPRP : 0.698
RRIRKRPPRLPRPRPRPQMMPRP : -0.0245
RRIRSRPPRLPRPRPRPSHTPRP : -0.572

// fetch Escherichia coli TOP10 shrunken log2 fold change for RRIRARPPRLPRPRPRPKQNPRP 0.481

And the next one, RRIRTRPPRLPRPRPRPGLDPRP ? 0.0222

And the next one, RRIRVRPPRLPRPRPRPHKWPRP ? -0.0581

----------
tested on: Escherichia coli TOP10; test: shrunken log2 fold change of peptide-encoding DNA abundance (4.5 h post-induction vs induction); higher = less antimicrobial activity (less host growth inhibition); details: time post-induction: 4.5 h; library: site-saturation at positions 5, 18, 19, 20
Each record here notes measured shrunken log2 fold change.

Sample answers from the record:
RRIRHRPPRLPRPRPRPPFYPRP : -0.288
RRIRCRPPRLPRPRPRPTGFPRP : -0.135

Could you now consider this next sequence?
Record request: shrunken log2 fold change value, item RRIRSRPPRLPRPRPRPFRMPRP -0.646

----------
system: Escherichia coli TOP10; assay: shrunken log2 fold change of peptide-encoding DNA abundance (4.5 h post-induction vs induction); higher = less antimicrobial activity (less host growth inhibition); conditions: time post-induction: 4.5 h; library: site-saturation at positions 5, 18, 19, 20
Reported Property: shrunken log2 fold change

Sample answers from the record:
RRIRTRPPRLPRPRPRPSVMPRP : -0.372
RRIRKRPPRLPRPRPRPGFFPRP : 0.786
RRIRDRPPRLPRPRPRPVVSPRP : 0.0706
RRIRYRPPRLPRPRPRPQHNPRP : -1.13

Record request: shrunken log2 fold change value, item RRIRGRPPRLPRPRPRPDPMPRP 0.743

And the next one, RRIRSRPPRLPRPRPRPCQYPRP ? 0.0376

And the next one, RRIRFRPPRLPRPRPRPFLKPRP ? -0.145

And the next one, RRIRARPPRLPRPRPRPMHEPRP ? 0.671

And the next one, RRIRDRPPRLPRPRPRPLICPRP ? 0.347

And the next one, RRIRERPPRLPRPRPRPNLIPRP ? -0.421

----------
Each record here notes measured shrunken log2 fold change.
tested on: Escherichia coli TOP10; test: shrunken log2 fold change of peptide-encoding DNA abundance (4.5 h post-induction vs induction); higher = less antimicrobial activity (less host growth inhibition); conditions: time post-induction: 4.5 h; library: site-saturation at positions 5, 18, 19, 20

Sample answers from the record:
RRIRKRPPRLPRPRPRPPYMPRP : -0.209
RRIRNRPPRLPRPRPRPYAMPRP : 0.0743
RRIRGRPPRLPRPRPRPFWSPRP : 0.679

Record request: shrunken log2 fold change value, item RRIRKRPPRLPRPRPRPQQTPRP -0.0533

And the next one, RRIRTRPPRLPRPRPRPSPYPRP ? -0.573

And the next one, RRIRGRPPRLPRPRPRPKCIPRP ? 0.0819

And the next one, RRIRSRPPRLPRPRPRPKGGPRP ? 0.149

And the next one, RRIRERPPRLPRPRPRPWCDPRP ? -0.508

And the next one, RRIRVRPPRLPRPRPRPCDCPRP ? 0.00675

And the next one, RRIRHRPPRLPRPRPRPWCSPRP ? -0.348

And the next one, RRIRARPPRLPRPRPRPAIFPRP ? 0.562

----------
test system: Escherichia coli TOP10; test: shrunken log2 fold change of peptide-encoding DNA abundance (4.5 h post-induction vs induction); higher = less antimicrobial activity (less host growth inhibition); conditions: time post-induction: 4.5 h; library: site-saturation at positions 5, 18, 19, 20
Output: class label from shrunken log2 fold change. Mapping: band 1: < -0.05; band 2: ≥ -0.05 and < 0.1; band 3: ≥ 0.1

RRIRVRPPRLPRPRPRPGSDPRP : band 2
RRIRNRPPRLPRPRPRPQQRPRP : band 1

Any idea which band RRIRDRPPRLPRPRPRPNQKPRP is in? band 3

And the next one, RRIRERPPRLPRPRPRPCPFPRP ? band 1

And the next one, RRIRMRPPRLPRPRPRPPLEPRP ? band 3

And the next one, RRIRYRPPRLPRPRPRPMIDPRP ? band 2

And the next one, RRIRDRPPRLPRPRPRPGTRPRP ? band 3

And the next one, RRIRNRPPRLPRPRPRPMVNPRP ? band 2

And the next one, RRIRSRPPRLPRPRPRPYNPPRP ? band 1

----------
tested on: Escherichia coli TOP10; test: shrunken log2 fold change of peptide-encoding DNA abundance (4.5 h post-induction vs induction); higher = less antimicrobial activity (less host growth inhibition); details: time post-induction: 4.5 h; library: site-saturation at positions 5, 18, 19, 20;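 further: peptides expressed intracellularly from a pBAD plasmid library in pooled LB shake-flask culture, induced with 0.3% L-arabinose, DNA abundance read by NGS, three biological replicates, DESeq2 with apeglm shrinkage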
Please use Yes whenever shrunken log2 fold change is not below -0.1, and No whenever it is.

Illustrative cases are given below, each with its answer.
RRIRVRPPRLPRPRPRPHFFPRP : Yes
RRIRIRPPRLPRPRPRPCCEPRP : No
RRIRDRPPRLPRPRPRPETMPRP : Yes

Decide: is the reported value of shrunken log2 fold change for RRIRVRPPRLPRPRPRPDERPRP equal to or greater than -0.1? Yes

And the next one, RRIRIRPPRLPRPRPRPLWDPRP ? No

And the next one, RRIRSRPPRLPRPRPRPATDPRP ? Yes

Value source: the supplement of paper PMC9112550
